Target: Bombesin receptor subtype-3 (Homo sapiens)
Sequence (P32247 whole entry): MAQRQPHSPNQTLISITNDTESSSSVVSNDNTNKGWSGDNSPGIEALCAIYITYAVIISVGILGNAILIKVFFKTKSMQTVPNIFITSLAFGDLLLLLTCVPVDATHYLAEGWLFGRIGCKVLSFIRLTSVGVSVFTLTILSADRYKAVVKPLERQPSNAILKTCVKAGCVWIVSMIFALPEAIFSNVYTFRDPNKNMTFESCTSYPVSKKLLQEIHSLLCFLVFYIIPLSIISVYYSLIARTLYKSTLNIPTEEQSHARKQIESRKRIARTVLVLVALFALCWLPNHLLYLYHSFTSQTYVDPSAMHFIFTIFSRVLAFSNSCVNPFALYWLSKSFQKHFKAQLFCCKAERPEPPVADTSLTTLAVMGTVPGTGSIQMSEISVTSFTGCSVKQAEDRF
Outcome measure: pKi
In textbook form, pKi equals minus log to base ten of the concentration in mol/L.

query: Could you please provide reported pKi for O[C@@](Cc1nc(CC2(C(F)(F)F)CC2)c[nH]1)(c1ccc(-n2cccn2)cc1)C(F)(F)F ? Thanks!
result: 8.43

----------
Biological target: Bombesin receptor subtype-3 (Homo sapiens, UniProt P32247)
Sequence (P32247 whole entry): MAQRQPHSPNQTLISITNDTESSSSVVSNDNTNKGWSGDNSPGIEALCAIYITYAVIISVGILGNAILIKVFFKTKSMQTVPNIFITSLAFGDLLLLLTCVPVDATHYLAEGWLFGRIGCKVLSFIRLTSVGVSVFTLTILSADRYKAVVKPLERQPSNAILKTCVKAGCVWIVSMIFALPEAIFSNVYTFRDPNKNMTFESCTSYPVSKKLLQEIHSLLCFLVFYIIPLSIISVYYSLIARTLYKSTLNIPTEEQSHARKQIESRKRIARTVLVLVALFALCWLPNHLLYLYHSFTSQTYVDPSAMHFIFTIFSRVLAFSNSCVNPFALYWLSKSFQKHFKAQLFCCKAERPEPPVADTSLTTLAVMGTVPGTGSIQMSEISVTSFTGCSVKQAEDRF
In this section, each of the compounds is paired with its reported pIC50.
In textbook form, pIC50 equals minus log to base ten of the concentration in mol/L.

query: Could you please provide reported pIC50 for O[C@@](Cc1nc(CC2(C(F)(F)F)CC2)c[nH]1)(c1ccc(-n2cccn2)cc1)C(F)(F)F ? Thanks!
result: 7.57

query: Could you please provide reported pIC50 for CCC(C)(C)Cc1cnc(CCc2ccc(-c3ccc(F)cn3)cc2)[nH]1 ? Thanks!
result: 7.80

query: Could you please provide reported pIC50 for CC(C)(C)Cc1c[nH]c(CC(C)(O)c2ccc(-c3ccc(F)cn3)cc2)n1 (centres undefined) ? Thanks!
result: 7.77

query: Could you please provide reported pIC50 for CC(C)(C)Cc1c[nH]c(C(C)(O)Cc2ccc(-c3ccc(F)cn3)cc2)n1 (centres undefined) ? Thanks!
result: 7.09

----------
Assay: Oral bioavailability in rat at 2 mg/kg
Format: ADME, organism-based
Details: in vivo
Outcome measure: bioavailability (%)
Numeric answer only, unit % assumed.

query: Could you please provide reported bioavailability for O[C@@](Cc1nc(CC2(C(F)(F)F)CC2)c[nH]1)(c1ccc(-n2cccn2)cc1)C(F)(F)F ? Thanks!
result: 64

----------
Target: Bombesin receptor subtype-3 (Rattus norvegicus, UniProt Q8K418)
Sequence (Q8K418 whole entry): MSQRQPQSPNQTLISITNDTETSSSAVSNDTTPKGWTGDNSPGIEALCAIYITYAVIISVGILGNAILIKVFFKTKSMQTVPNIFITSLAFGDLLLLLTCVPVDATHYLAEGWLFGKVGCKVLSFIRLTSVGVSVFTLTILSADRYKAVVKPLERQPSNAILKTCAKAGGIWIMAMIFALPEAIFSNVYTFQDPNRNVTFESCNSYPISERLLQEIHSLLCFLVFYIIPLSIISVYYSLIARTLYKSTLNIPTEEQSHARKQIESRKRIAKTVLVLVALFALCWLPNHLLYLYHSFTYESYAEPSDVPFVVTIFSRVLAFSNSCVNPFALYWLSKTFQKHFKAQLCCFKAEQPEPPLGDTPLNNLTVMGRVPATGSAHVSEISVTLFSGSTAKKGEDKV
Outcome measure: pKi
In textbook form, pKi equals minus log to base ten of the concentration in mol/L.

query: Could you please provide reported pKi for O[C@@](Cc1nc(CC2(C(F)(F)F)CC2)c[nH]1)(c1ccc(-n2cccn2)cc1)C(F)(F)F ? Thanks!
result: 9.22
